The reported measurements were obtained from PubChem BioAssay (NCI).

Would you kindly list TGI for each of these compounds?
# Tested on: UACC-257 melanoma
# Assay text: NCI tumour cell line growth inhibition, 48 h

### Prompt Record `CC1=CC(=O)/C(=C/n2c(=S)[nH]c3cc(C)ccc32)C(=O)O1` : what is its TGI with UACC-257 melanoma?
### Response > 100 µM

### Prompt Param readout = TGI; param system = UACC-257 melanoma; param query = `COc1ccc(-c2nc(-c3cnccn3)n(Cc3ccccc3)n2)cc1` ; response: value
### Response > 100 µM

### Prompt Quick check: TGI on UACC-257 melanoma, item `O=C(Nc1ccc(Oc2ccc(NC(=O)Nc3ccc([N+](=O)[O-])cc3)cc2)cc1)Nc1ccc([N+](=O)[O-])cc1` ?
### Response > 26 µM

### Prompt Short answer please: TGI, UACC-257 melanoma, entry Cn1cnc(SC2=C3C(=O)C=C4S[C@H]5C[C@]42c2c(c(O)c4c6c2=[N+]3CCC=6C=N4)N5)c1CC(N)C(=O)O (stereo not given in full)
### Response 29.9 µM

### Prompt Param readout = TGI; param system = UACC-257 melanoma; param query = OC(C1CCCCCCCCCC1)C(O)C1CCCCCCCCCC1 (stereo not given) ; response: value
### Response > 100 µM
